Listing: IC50 of selected compounds
Biological target: mouse group 1B PLA2 (mps PLA2) (Mus musculus, UniProt Q9Z0Y2)
Construct: made in house; host or cells: E. coli
Sequence (Q9Z0Y2 23-146): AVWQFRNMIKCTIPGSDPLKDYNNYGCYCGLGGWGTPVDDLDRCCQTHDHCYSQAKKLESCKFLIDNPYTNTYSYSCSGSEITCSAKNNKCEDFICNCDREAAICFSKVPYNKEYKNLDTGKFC
Experiment: Example 8 fluorimetric PLA2 inhibition assay (PPyrPM), mouse enzyme
Format: biochemical
metric: IC50 (nM)

compound=Cc1c(C(=O)C(N)=O)c2c(OCC(=O)NS(=O)(=O)CCCC(=O)O)cccc2n1Cc1ccccc1 metric=IC50 endpoint_unit=nM val=1360
compound="Cc1c(C(=O)C(N)=O)c2c(OC(C(=O)O)C(C)C)cccc2n1CCCCCCCCCCCCOc1ccccc1OCCCCCCCCCCCCn1c(C)c(C(=O)C(N)=O)c2c(OC(C(=O)O)C(C)C)cccc21 (centres unmarked)" metric=IC50 endpoint_unit=nM val=300

All figures here come from patent US20090318492A1.
